As shown below, each of these sequences has a reported apparent KD of MS2 coat protein value.
Tested on: MS2 coat protein
Test: apparent KD of MS2 coat protein; designed switch direction (-1 OFF switch, 1 ON switch): -1; higher = weaker reporter binding
Settings: input ligand: FMN 200 uM

residues	apparent KD of MS2 coat protein
GCACGAAGUGUAGGAUAUCUGUGCGAUUAGCUCAGAGAAGGACACAUGAGGAUCACCCAUGUGUUCCGCGGAAGCAAUACGUGC [Eli exng1 - 057] (Eterna round: R96, puzzle: Exclusion NG 1)	10.7 nM
AACCAGCGAGGAUAUCGUUCGGAUAACAUGAGGAUCACCCAUGUGAGUCGUGUUUACGAACGAGAAGGCGCGACUC [Cequus] (Eterna round: R97, puzzle: Exclusion 5)	218 nM
ACGUUGUCAGGAUAUCGUUAAUUUAGUUGUUUGUAUUAGUUCGAGAAGGGACAUGAGGAUCACCCAUGUUUGAA [Ex4 #34] (Eterna round: R97, puzzle: Exclusion 4)	36.2 nM
UGUUGUCGCGUAGGAUAUGCAUGAGGAUCACCCAUGCAAUUAGAGUUAACAUGAGGAUCACCCAUGUAGAAGGACGGGACAACU [pwkr exNG2 2xF5 1xFMN.6] (Eterna round: R96, puzzle: Exclusion NG 2)	89.2 nM
GGAAAUCAUGUAGGAUAUGCGUGGCGAAGCUAUGCAGAAGGACAUGAGGAUCACCCAUGUGCUUCCGUCUGCGUACAGACGGAA [Mat - Exclusion NG 1 - Mod of JL - D20] (Eterna round: R96, puzzle: Exclusion NG 1)	32.3 nM
CCUCCGUAUUAGGAUAUCGUCCCGGAAACGGGACGAGAAGGAAUGACAUGAGGAUCACCCAUGUUAACGUGAUG [Mod of Brourd 20 - Jieux - Exclusion 6] (Eterna round: R97, puzzle: Exclusion 6)	48.9 nM
GCCCAGUUAGGAUAUACAUGUCACGUCCUAACGGUCGAAGGACAUGAGGAUCACCCAUGUAGAAGGGACCGGCA [Onraonbe] (Eterna round: R97, puzzle: Exclusion 2)	17.7 nM
GAACUGAGGCUUUGCUUUAGUCGUACAUGAGGAUCACCCAUGUAGGAUAUGGUAGGCUUUGCUUACCAGAAGGACAGAGUGAUC [JL EXNG3 1.21] (Eterna round: R96, puzzle: Exclusion NG 3)	52.9 nM
UGCCGUUGAGGAUAUACAUAGAAAUAGAUUCAUGUAAAACUACAUGAGGAUCACCCAUGUAGAAGGCAAUGGCU [Mat - Exclusion 2 - JL Mod - D51] (Eterna round: R97, puzzle: Exclusion 2)	128 nM
